- Tested on: RSV Long strain
- assay-explanation: Viral cytopathic effect (CPE) assay, RSV Long strain
- Type: cell-based, Respiratory Syncytial Virus
- conditions-used: human respiratory syncytial virus, 144 h, cell viability after 6 days (Cell Counting kit-8)
Group membership follows EC50 per the scheme lo: < 20 nM; med: ≥ 20 nM and < 70 nM; hi: ≥ 70 nM

[
  {
    "compound": "O=C1N(Cc2cc3cc(Cl)ncc3n2CCC2CS(=O)(=O)C2)c2cnccc2C12CC2 [Example 4-11]",
    "answer-label": "lo"
  },
  {
    "compound": "CS(=O)(=O)CCn1c(CN2C(=O)C3(CC3)c3cccnc32)cc2cc(Cl)ccc21 [Example 2-5]",
    "answer-label": "hi"
  },
  {
    "compound": "CS(=O)(=O)CCn1c(CN2C(=O)C3(CC3)c3ccncc32)cc2c(Cl)cccc21 [Example 1-6]",
    "answer-label": "hi"
  },
  {
    "compound": "O=C1N(Cc2cc3cc(Cl)ccc3n2CCCCN2CCCS2(=O)=O)c2cnccc2C12CC2 [Example 7-8]",
    "answer-label": "lo"
  },
  {
    "compound": "NS(=O)(=O)CCCn1c(CN2C(=O)C3(CC3)c3ccncc32)cc2cc(Cl)cnc21 [Example 25-3]",
    "answer-label": "med"
  },
  {
    "compound": "CS(=O)(=O)CCn1c(CN2C(=O)C3(CC3)c3ccncc32)nc2cc(Cl)cc(F)c21 [Example 37-1]",
    "answer-label": "lo"
  },
  {
    "compound": "O=C(CCn1c(CN2C(=O)C3(CC3)c3ccncc32)cc2cc(Cl)ccc21)NS(=O)(=O)C1CC1 [Example 19-1]",
    "answer-label": "hi"
  },
  {
    "compound": "CN(C)S(=O)(=O)CCCn1c(CN2C(=O)C3(CC3)c3ccncc32)cc2cc(Cl)ccc21 [Example 7-1]",
    "answer-label": "lo"
  },
  {
    "compound": "CS(=O)(=O)CCn1c(CN2C(=O)C3(CC3)c3ccncc32)cc2cc(Cl)ccc21 [Example 3-3]",
    "answer-label": "lo"
  },
  {
    "compound": "CS(=O)(=O)CCn1c(CN2C(=O)C3(CC3)c3cnccc32)cc2cc(Cl)ccc21 [Example 3-1]",
    "answer-label": "hi"
  },
  {
    "compound": "CS(=O)(=O)CCn1c(CN2C(=O)C3(CC3)c3ccncc32)nc2cc(Cl)ccc21 [Example 34-1]",
    "answer-label": "lo"
  },
  {
    "compound": "O=C1N(Cc2cc3cc(Cl)ncc3n2CCC2CSC2)c2cnccc2C12CC2 [Example 4-10]",
    "answer-label": "hi"
  },
  {
    "compound": "CCS(=O)(=O)CCCn1c(CN2C(=O)C3(CC3)c3ccncc32)cc2cc(Cl)cnc21 [Example 23]",
    "answer-label": "med"
  },
  {
    "compound": "CS(=O)(=O)CCn1c(CN2C(=O)C3(CCC3)c3ccncc32)cc2cc(Cl)cnc21 [Example 2-4]",
    "answer-label": "med"
  },
  {
    "compound": "CS(=O)(=O)CCn1c(CN2C(=O)C3(CC3)c3ccncc32)cc2ccccc21 [Example 1-1]",
    "answer-label": "hi"
  },
  {
    "compound": "CNS(=O)(=O)CCCn1c(CN2C(=O)C3(CC3)c3ccncc32)cc2cc(Cl)ccc21 [Example 25-2]",
    "answer-label": "lo"
  }
]

Recorded values, source patent US10189838B2.
